The values you see were collected from paper PMC9186362.

Experimental System: HsHaspin (Homo sapiens, UniProt Q8TF76)
Sequence (Q8TF76 whole entry): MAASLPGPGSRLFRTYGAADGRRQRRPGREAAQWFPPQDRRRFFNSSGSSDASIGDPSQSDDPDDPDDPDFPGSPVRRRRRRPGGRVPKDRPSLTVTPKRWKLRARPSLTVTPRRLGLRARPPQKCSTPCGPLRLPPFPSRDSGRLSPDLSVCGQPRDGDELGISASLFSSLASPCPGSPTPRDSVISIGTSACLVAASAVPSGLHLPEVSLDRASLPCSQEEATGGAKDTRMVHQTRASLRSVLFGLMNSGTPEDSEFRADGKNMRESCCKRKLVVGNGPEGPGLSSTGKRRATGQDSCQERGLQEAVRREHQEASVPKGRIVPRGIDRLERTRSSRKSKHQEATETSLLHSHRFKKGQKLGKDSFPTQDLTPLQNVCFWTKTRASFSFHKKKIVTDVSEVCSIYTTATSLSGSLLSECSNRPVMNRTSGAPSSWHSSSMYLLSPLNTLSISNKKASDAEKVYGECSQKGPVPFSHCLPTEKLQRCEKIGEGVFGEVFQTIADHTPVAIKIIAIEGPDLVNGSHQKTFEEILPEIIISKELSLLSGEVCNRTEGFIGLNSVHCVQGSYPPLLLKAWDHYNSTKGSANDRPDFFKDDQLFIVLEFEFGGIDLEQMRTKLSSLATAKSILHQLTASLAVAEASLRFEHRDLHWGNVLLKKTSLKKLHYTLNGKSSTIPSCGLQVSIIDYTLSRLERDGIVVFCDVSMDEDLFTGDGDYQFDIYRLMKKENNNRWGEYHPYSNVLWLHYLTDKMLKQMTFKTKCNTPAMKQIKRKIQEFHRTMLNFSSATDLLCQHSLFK
Protocol Details: ADP-Glo kinase assay
Type: biochemical, Homo sapiens (Hs)
Measurement Setup: 1 μM; mean n = 2; % of maximum activity of DMSO control; read-out: % Residual activity at 1 μM Haspin
Result Type: remaining activity at 1 µM (%)
Report only the number, with the unit % understood.

Solved entries:
Requested field: remaining activity at 1 µM. Item: COc1ccc2[nH]c3c(=O)[nH]c4ccc(O)cc4c3c2c1 0

Next record, please: COc1ccc2c(c1)[nH]c(=O)c1[nH]c3ccc(OC)cc3c12 3

Next record, please: O=c1[nH]c2cc(O)ccc2c2c1[nH]c1ccccc12 28

Next:
Requested field: remaining activity at 1 µM. Item: COc1ccc2[nH]c(=O)c3[nH]c4ccc(F)cc4c3c2c1 9

Next record, please: COc1ccc2[nH]c3c(=O)[nH]c4ccc(C(F)(F)F)cc4c3c2c1 33

###

// reported remaining activity at 1 µM per item
Experimental System: UniProtKB P11309
Sequence (P11309 whole entry): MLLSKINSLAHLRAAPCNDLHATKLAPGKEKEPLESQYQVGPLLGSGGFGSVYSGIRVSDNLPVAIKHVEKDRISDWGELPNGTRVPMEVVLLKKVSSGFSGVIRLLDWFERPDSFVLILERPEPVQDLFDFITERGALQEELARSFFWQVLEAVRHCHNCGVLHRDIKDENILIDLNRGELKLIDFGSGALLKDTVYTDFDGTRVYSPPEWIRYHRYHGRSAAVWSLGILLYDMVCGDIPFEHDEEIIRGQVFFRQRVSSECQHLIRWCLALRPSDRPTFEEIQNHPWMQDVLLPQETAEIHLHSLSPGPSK
Protocol Details: ADP-Glo kinase assay
Format: biochemical, Homo sapiens (Hs)
Measurement Setup: mean n = 2, % of maximum activity of DMSO control, read-out: % Residual activity at 1 μM PIM1
Report only the number, with the unit % understood.

Solved entries:
Requested field: remaining activity at 1 µM. Item: COc1ccc2[nH]c3c(=O)[nH]c4ccc(NC(C)=O)cc4c3c2c1 37

Next record, please: COc1ccc2c(c1)[nH]c(=O)c1[nH]c3ccc(OC)cc3c12 19

Next:
Requested field: remaining activity at 1 µM. Item: COc1ccc2[nH]c3c(=O)[nH]c4ccccc4c3c2c1 41

Next record, please: COc1ccc2[nH]c(=O)c3[nH]c4ccc(F)cc4c3c2c1 100

Next record, please: COc1ccc2[nH]c3c(=O)[nH]c4ccc(C(F)(F)F)cc4c3c2c1 31

###

Experimental System: HsCdk9/Cyc E (Homo sapiens)
Sequence (P50750 whole entry): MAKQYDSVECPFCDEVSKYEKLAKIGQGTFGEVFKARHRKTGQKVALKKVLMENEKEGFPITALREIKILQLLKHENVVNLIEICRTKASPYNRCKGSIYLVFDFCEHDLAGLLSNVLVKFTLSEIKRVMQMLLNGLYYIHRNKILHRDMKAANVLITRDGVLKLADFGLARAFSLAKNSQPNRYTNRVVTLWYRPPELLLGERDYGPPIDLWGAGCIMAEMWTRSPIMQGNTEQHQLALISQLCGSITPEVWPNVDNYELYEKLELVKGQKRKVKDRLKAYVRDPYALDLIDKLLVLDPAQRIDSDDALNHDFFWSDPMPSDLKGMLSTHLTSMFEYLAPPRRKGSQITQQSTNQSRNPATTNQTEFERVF
Sequence (O60563 whole entry partner): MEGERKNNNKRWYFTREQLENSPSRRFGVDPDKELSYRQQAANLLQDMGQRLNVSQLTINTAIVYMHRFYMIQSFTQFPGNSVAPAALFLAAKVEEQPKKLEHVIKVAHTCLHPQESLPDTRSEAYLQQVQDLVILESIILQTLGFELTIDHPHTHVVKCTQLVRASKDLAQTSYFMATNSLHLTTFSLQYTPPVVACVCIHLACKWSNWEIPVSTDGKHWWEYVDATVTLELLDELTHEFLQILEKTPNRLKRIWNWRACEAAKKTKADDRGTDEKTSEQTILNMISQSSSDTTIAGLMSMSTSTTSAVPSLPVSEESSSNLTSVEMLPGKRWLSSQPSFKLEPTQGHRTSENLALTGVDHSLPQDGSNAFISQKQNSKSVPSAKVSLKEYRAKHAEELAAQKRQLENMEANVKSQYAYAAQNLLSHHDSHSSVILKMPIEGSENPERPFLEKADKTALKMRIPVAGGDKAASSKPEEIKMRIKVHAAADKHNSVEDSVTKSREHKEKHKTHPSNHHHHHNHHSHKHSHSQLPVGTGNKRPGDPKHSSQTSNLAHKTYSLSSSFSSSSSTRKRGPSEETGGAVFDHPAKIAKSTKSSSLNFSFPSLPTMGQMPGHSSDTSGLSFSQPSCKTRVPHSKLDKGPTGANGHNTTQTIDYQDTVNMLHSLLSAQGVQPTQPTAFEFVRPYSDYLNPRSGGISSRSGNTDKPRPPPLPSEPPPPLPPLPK
Protocol Details: ADP-Glo kinase assay
Assay type: biochemical, Homo sapiens (Hs)
Measurement Setup: mean n = 2, % of maximum activity of DMSO control, read-out: % Residual activity at 1 μM CDK9
Protocol: Kinase activities were determined using the ADP-Glo methodology (ADP-Glo Kinase Assay; Promega) according to the assay described by Nguyen et al.[32] except for MmCLK1. The later was assayed in the following buffer: 10 mM MgCl2, 1 mM EGTA, 1 mM DTT, 25 mM Tris-HCl pH 7.5, 50 µg/ml heparin, 0.15 mg/ml BSA, with 0.027 µg/µl of the following peptide: GRSRSRSRSRSR as substrate.
Bucketed by reported remaining activity at 1 µM, buckets being low class = under 40%, middle class = from 40% up to 60%, high class = 60% and over

Please review the entries below; each comes with its answer.
Note: place this molecule into its band. Item: COc1ccc2[nH]c(=O)c3[nH]c4ccccc4c3c2c1 high class

Next record, please: O=c1[nH]c2ccc(O)cc2c2c1[nH]c1ccccc12 middle class

Next record, please: O=c1[nH]c2ccccc2c2c1[nH]c1ccccc12 high class

Next record, please: COc1ccc2c(c1)[nH]c(=O)c1[nH]c3ccc(OC)cc3c12 middle class

Next record, please: COc1ccc2c(c1)[nH]c1c(=O)[nH]c3ccccc3c12 middle class

Next record, please: COc1ccc2[nH]c3c(=O)[nH]c4cc(OC)c(OC)cc4c3c2c1 low class

Next record, please: COc1ccc2c(c1)c1c3cc(O)ccc3[nH]c(=O)c1n2C low class

Next record, please: COc1ccc2[nH]c3c(=O)[nH]c4cc(O)ccc4c3c2c1 low class

Next:
Note: place this molecule into its band. Item: COc1ccc2[nH]c3c(=O)[nH]c4ccc(N)cc4c3c2c1 low class
